Hey, just so you know, these numbers are from paper PMC6272178.

Ki for assorted compounds
Target: UniProt P27338
Sequence (P27338 1-520): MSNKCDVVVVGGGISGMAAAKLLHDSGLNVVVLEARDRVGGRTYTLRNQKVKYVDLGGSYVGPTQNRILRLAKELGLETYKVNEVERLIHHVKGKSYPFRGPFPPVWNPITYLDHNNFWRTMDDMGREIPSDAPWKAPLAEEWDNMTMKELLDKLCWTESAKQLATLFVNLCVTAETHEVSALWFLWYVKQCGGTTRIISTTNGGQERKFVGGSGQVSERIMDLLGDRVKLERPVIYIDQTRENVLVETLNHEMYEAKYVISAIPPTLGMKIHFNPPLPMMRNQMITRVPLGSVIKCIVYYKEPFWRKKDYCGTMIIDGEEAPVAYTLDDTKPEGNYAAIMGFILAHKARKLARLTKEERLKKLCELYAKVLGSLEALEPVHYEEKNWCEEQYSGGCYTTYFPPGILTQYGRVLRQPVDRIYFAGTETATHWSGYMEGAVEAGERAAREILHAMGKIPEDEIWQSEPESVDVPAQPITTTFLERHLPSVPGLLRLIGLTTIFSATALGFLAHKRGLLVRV
Test: hMAO-B inhibition, fluorimetric Amplex Red assay with p-tyramine, kinetic Ki determination
Settings: recombinant hMAO-B, p-tyramine substrate 0.05–0.5 mM, mean ± SEM of three experiments; read-out: Experimental Ki for MAO-B
reportedMetric: Ki (mM)

INSERT INTO results (structurenotation, unitssymbol, numericreadout) VALUES
  ('COc1ccc(-c2cc(=O)c3c(O)c(OC)c(OC)cc3o2)cc1', 'mM', 0.00627),
  ('CC(=O)OC[C@H]1O[C@@H](O[C@H]2[C@H](Oc3cc(O)c4c(=O)cc(-c5ccc(O)cc5)oc4c3O)O[C@H](COC(C)=O)[C@@H](O)[C@@H]2O)[C@H](O)[C@H](O)[C@@H]1O', 'mM', 80.5),
  ('COc1c(OC)c(O)c2c(=O)cc(-c3ccc(O)cc3)oc2c1OC', 'mM', 0.0995),
  ('CC(=O)OC[C@H]1O[C@@H](O[C@H]2[C@H](Oc3cc(O)c4c(=O)cc(-c5ccc(O)cc5)oc4c3O)O[C@H](CO)[C@@H](O)[C@@H]2O)[C@H](O)[C@H](O)[C@@H]1O', 'mM', 75.6);

====

Molecular target: hMAO-A (Homo sapiens, UniProt P21397)
Construct: purchased Sigma-Aldrich (Munich, Germany); host or cells: baculovirus-infected BTI insect cells
Sequence (P21397 whole entry): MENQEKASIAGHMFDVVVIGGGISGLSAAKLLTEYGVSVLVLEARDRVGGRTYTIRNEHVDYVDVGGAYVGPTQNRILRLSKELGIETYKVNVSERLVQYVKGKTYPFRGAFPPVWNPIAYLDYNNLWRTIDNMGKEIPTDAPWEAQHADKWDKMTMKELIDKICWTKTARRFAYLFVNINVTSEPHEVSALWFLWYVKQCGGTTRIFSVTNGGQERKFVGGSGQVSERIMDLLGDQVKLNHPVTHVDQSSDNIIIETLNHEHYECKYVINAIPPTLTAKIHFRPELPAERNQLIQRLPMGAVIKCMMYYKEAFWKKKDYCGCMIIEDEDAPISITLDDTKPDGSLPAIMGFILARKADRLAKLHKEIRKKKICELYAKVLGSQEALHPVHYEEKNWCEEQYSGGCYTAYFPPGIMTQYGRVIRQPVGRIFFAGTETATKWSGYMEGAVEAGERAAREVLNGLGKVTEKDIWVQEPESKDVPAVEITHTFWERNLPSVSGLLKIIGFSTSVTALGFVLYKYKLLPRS
Experiment: Reversibility of hMAO-A inhibition, centrifugation-ultrafiltration method
Assay type: biochemical
Conditions: compound 0.50 μM, after repeated washing (three centrifugation-ultrafiltration steps), mean ± SEM of three experiments; read-out: hMAO-A Inhibition (%) After Washing
# if value of inhibition at 0.5 µM reaches 9%, tag y; if it stays below, tag n

INSERT INTO results (compound, group) VALUES
  ('CC(=O)OC[C@H]1O[C@@H](O[C@H]2[C@H](Oc3cc(O)c4c(=O)cc(-c5ccc(O)cc5)oc4c3O)O[C@H](CO)[C@@H](O)[C@@H]2O)[C@H](O)[C@H](O)[C@@H]1O [Compound 2]', 'y'),
  ('O=C(NCCN1CCOCC1)c1ccc(Cl)cc1 [Moclobemide, moclobemide, reference compound]', 'n'),
  ('COc1ccc(-c2cc(=O)c3c(O)c(OC)c(OC)cc3o2)cc1 [Compound 4, salvigenin]', 'n'),
  ('CC(=O)OC[C@H]1O[C@@H](O[C@H]2[C@H](Oc3cc(O)c4c(=O)cc(-c5ccc(O)cc5)oc4c3O)O[C@H](COC(C)=O)[C@@H](O)[C@@H]2O)[C@H](O)[C@H](O)[C@@H]1O [Compound 3]', 'y');

====

Target: hMAO-A (Homo sapiens)
Assay: hMAO-A inhibition, fluorimetric Amplex Red assay with p-tyramine, kinetic Ki determination
Settings: recombinant hMAO-A, p-tyramine substrate 0.05–0.5 mM, mean ± SEM of three experiments; read-out: Experimental Ki for MAO-A
reportedMetric: Ki (µM)

INSERT INTO assay_data (molecule, unitssymbol, numericreadout) VALUES
  ('COc1ccc(-c2cc(=O)c3c(O)c(OC)c(OC)cc3o2)cc1 [Compound 4, salvigenin]', 'µM', 0.54),
  ('CC(=O)OC[C@H]1O[C@@H](O[C@H]2[C@H](Oc3cc(O)c4c(=O)cc(-c5ccc(O)cc5)oc4c3O)O[C@H](CO)[C@@H](O)[C@@H]2O)[C@H](O)[C@H](O)[C@@H]1O [Compound 2]', 'µM', 1100),
  ('COc1c(OC)c(O)c2c(=O)cc(-c3ccc(O)cc3)oc2c1OC [Compound 1, xanthomicrol]', 'µM', 0.76),
  ('CC(=O)OC[C@H]1O[C@@H](O[C@H]2[C@H](Oc3cc(O)c4c(=O)cc(-c5ccc(O)cc5)oc4c3O)O[C@H](COC(C)=O)[C@@H](O)[C@@H]2O)[C@H](O)[C@H](O)[C@@H]1O [Compound 3]', 'µM', 2800);
